Each item that follows carries a reported Inhibition halo.
system: Staphylococcus epidermidis (ATC 14990); assay: Agar plate inhibition halo test according to Example 5, overnight culture; type: cell-based; conditions: active compound-loaded nanourea dispersion prepared analogously to Example 2

Input Smiles	Measure Unit	Inhibition halo
O=C(O)c1ccccc1O	mm	38
COCN(COC)c1nc(N(COC)COC)nc(N(COC)COC)n1	mm	13
C=O	mm	21
CC(=O)Oc1ccccc1C(=O)O	mm	13
